System: Escherichia coli TOP10
Experiment: shrunken log2 fold change of peptide-encoding DNA abundance (4.5 h post-induction vs induction); higher = less antimicrobial activity (less host growth inhibition)
Details: time post-induction: 4.5 h; library: site-saturation at positions 5, 18, 19, 20
measured.property: shrunken log2 fold change
Answer using only a numeral; do not append any unit.

RRIRKRPPRLPRPRPRPITCPRP: 0.0162

Reported shrunken log2 fold change of RRIRCRPPRLPRPRPRPYWNPRP : -0.629

Reported shrunken log2 fold change of RRIRHRPPRLPRPRPRPMFRPRP : -0.422

Reported shrunken log2 fold change of RRIRKRPPRLPRPRPRPWVNPRP : 0.0319

Reported shrunken log2 fold change of RRIRVRPPRLPRPRPRPAMVPRP : 0.118

Reported shrunken log2 fold change of RRIRLRPPRLPRPRPRPDMKPRP : -0.286

----------
Tested on: Escherichia coli TOP10
Assay: shrunken log2 fold change of peptide-encoding DNA abundance (4.5 h post-induction vs induction); higher = less antimicrobial activity (less host growth inhibition)
Conditions: time post-induction: 4.5 h; library: site-saturation at positions 5, 18, 19, 20
measured.property: shrunken log2 fold change
Answer using only a numeral; do not append any unit.

RRIRYRPPRLPRPRPRPILHPRP: -0.141
RRIRLRPPRLPRPRPRPNTRPRP: -0.273

Turning to the following sequence.
Reported shrunken log2 fold change of RRIRIRPPRLPRPRPRPRHWPRP : -0.12

----------
A collection of sequences and their measured shrunken log2 fold change
System: Escherichia coli TOP10
Experiment: shrunken log2 fold change of peptide-encoding DNA abundance (4.5 h post-induction vs induction); higher = less antimicrobial activity (less host growth inhibition)
Settings: time post-induction: 4.5 h; library: site-saturation at positions 5, 18, 19, 20

Here is how some sequences turned out for shrunken log2 fold change.
RRIRDRPPRLPRPRPRPPFLPRP: 0.0487
RRIRNRPPRLPRPRPRPFQCPRP: -0.0493
RRIRARPPRLPRPRPRPPKQPRP: 0.0504

Reported shrunken log2 fold change of RRIRGRPPRLPRPRPRPEPDPRP : 1.27

Reported shrunken log2 fold change of RRIRFRPPRLPRPRPRPFGSPRP : -0.00247

Reported shrunken log2 fold change of RRIRMRPPRLPRPRPRPFFKPRP : -0.116

Reported shrunken log2 fold change of RRIRVRPPRLPRPRPRPAQIPRP : -0.246

Reported shrunken log2 fold change of RRIRSRPPRLPRPRPRPEVRPRP : -0.109

----------
Test system: Escherichia coli TOP10;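 note: peptides expressed intracellularly from a pBAD plasmid library in pooled LB shake-flask culture, induced with 0.3% L-arabinose, DNA abundance read by NGS, three biological replicates, DESeq2 with apeglm shrinkage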
Assay: shrunken log2 fold change of peptide-encoding DNA abundance (4.5 h post-induction vs induction); higher = less antimicrobial activity (less host growth inhibition)
Conditions: time post-induction: 4.5 h; library: site-saturation at positions 5, 18, 19, 20
Each entry belongs to exactly one class, chosen by where its shrunken log2 fold change falls: group 1: < -0.1; group 2: ≥ -0.1 and < 0.1; group 3: ≥ 0.1

Past entries and their recorded results:
RRIRPRPPRLPRPRPRPTVEPRP: group 1
RRIRYRPPRLPRPRPRPQKQPRP: group 2
RRIRYRPPRLPRPRPRPWELPRP: group 2
RRIRRRPPRLPRPRPRPRRIPRP: group 3
RRIRLRPPRLPRPRPRPCGLPRP: group 3

Bin? RRIRSRPPRLPRPRPRPFYRPRP
group 1
